Ref: paper PMC9482650

# target_under_test: IL16_4, Q14005
# Sequence (Q14005 1229-1329): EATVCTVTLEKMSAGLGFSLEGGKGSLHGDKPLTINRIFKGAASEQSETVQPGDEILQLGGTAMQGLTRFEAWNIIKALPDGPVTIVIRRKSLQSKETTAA
# assay_protocol: holdup assay
# Parameters: key: below the threshold = too weak to quantify, mostly under pKd 3.1 to 4
# condition_context: plain residues with an end cap or a label only (N-terminal biotin on a linker: ttds)
reported_metric: pKd

binder	reported_metric	result
DKDPHSETAL [TMIGD1, Q6UXZ0]	pKd	below the threshold
KKYVDAETSL [SLC4A7, Q9Y6M7]	pKd	3.53
EMDRRPATVV [PLCB4, Q15147]	pKd	below the threshold
SSLQSLETSV [ATP2B4, P23634]	pKd	below the threshold
RLPKIKETTV [FRMPD4, Q14CM0]	pKd	below the threshold
RPLPRKVSQL [DOCK4, Q8N1I0]	pKd	below the threshold

The measured pKd associated with RLQRRRETQV [HPV18-E6, P06463] reads below the threshold

The measured pKd associated with QRQARSETLV [HPV59-E6, Q81964] reads below the threshold

The measured pKd associated with PRVKPQRSKV [PPP1R13L, Q8WUF5] reads below the threshold

The measured pKd associated with NDPAWDETNL [ARHGEF7, Q14155;Q14155-1] reads below the threshold

The measured pKd associated with SKPTRRETEV [HPV35-E6, P27228] reads below the threshold

The measured pKd associated with FHPLGADSQV [SLC2A1, P11166] reads below the threshold

The measured pKd associated with PVRVCEETSL [OTULIN, Q96BN8] reads 3.66

The measured pKd associated with SGSRPSATVV [HPV73-E6, Q82005] reads below the threshold

The measured pKd associated with EVVHTPETSV [SLC16A3, O15427] reads below the threshold

The measured pKd associated with RHTTSTETAV [HPV30-E6, P36809] reads below the threshold

The measured pKd associated with VDFPPKESSL [ACVR2A, P27037] reads below the threshold
